- target-or-system: Recombinant human Src (Homo sapiens, UniProt P12931)
- Construct: made in house; host or cells: baculovirus-insect cell system
- Sequence (P12931 whole entry): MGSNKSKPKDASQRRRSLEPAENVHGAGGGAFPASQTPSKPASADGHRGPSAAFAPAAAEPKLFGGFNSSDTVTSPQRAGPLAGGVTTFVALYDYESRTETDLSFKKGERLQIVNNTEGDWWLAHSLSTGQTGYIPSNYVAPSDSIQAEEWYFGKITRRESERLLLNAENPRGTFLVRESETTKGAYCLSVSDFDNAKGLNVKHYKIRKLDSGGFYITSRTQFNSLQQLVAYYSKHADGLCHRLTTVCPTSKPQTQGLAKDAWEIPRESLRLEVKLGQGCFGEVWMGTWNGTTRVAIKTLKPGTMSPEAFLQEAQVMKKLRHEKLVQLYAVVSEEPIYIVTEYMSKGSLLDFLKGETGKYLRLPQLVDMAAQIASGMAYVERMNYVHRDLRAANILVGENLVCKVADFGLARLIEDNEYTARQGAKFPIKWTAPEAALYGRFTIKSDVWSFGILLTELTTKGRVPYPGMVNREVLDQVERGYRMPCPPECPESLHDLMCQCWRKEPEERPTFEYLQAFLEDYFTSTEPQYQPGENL
- assay-text: Src tyrosine kinase activity, poly E4Y / 32P-ATP phosphorylation assay
- Assay type: biochemical
- measurement-conditions: Table 4, Formula III compounds; NI = no inhibition at 100 μg/mL
- Protocol: Recombinant human Src was expressed using the baculovirus-insect cell system and purified as published (Budde et al., 1993 and 2000). The tyrosine kinase activity of Src, Csk and FGFr was determined using poly E4Y and ^32P-ATP. […] Poly E4Y is a synthetic peptide whose phosphorylation is measured in this assay by the addition of the radioactively labeled phosphate from the ATP (Budde et al., 1995). […]
measured-quantity: IC50 (µM)

Example results:
molecule	readout-units	IC50
Cc1ccc(S(=O)(=O)Nc2cc(Br)c(Br)cc2NS(=O)(=O)c2ccc(C)cc2)cc1 [Compound 38a]	µM	31
COC(=O)c1cc(NS(=O)(=O)c2ccc(C)cc2)c(NS(=O)(=O)c2ccc(C)cc2)cc1Oc1ccc(OC)cc1 [Compound 33]	µM	67
Cc1ccc(S(=O)(=O)Nc2cc(F)c(SCc3ccccc3Cl)cc2NS(=O)(=O)c2ccc(C)cc2)cc1 [Compound 38c]	µM	2.2

1 = Cc1ccc(S(=O)(=O)Nc2cc(F)c(S(=O)(=O)Cc3ccccc3Cl)cc2NS(=O)(=O)c2ccc(C)cc2)cc1 [Compound 38d]
2 = COc1ccc(Oc2cc(NS(=O)(=O)c3ccc(C)cc3)c(NS(=O)(=O)c3ccc(C)cc3)cc2C(=O)O)cc1 [Compound 34]
### Prompt Given the two records 1 and 2 , choose the one whose IC50 value is lower. I would appreciate it if you answered with the label of your choice.
### Response 1
(1: 13 µM, 2: 77 µM)

P = COc1ccc(Oc2cc(NS(=O)(=O)c3ccc(C)cc3)c(NS(=O)(=O)c3ccc(C)cc3)cc2C)cc1 [Compound 37]
Q = Cc1ccc(S(=O)(=O)Nc2cc(N)c(Sc3ccc(Cl)cc3)cc2NS(=O)(=O)c2ccc(C)cc2)cc1 [Compound 23]
### Prompt // which entry reports the smaller IC50, P or Q ? When you have decided, please share the label of that item.
### Response Q
(Q: 58 µM, P: 118 µM)

###

- target-or-system: Recombinant Csk (Homo sapiens)
- assay-text: Csk tyrosine kinase activity, poly E4Y / 32P-ATP phosphorylation assay
- Type: biochemical
- measurement-conditions: Table 3, Formula II compounds; NI = no inhibition at 100 μg/mL
measured-quantity: IC50

Examples from the recorded data:
molecule	measured-quantity	endpoint-value
COc1ccc(Oc2ccc(NS(=O)(=O)c3cccc([N+](=O)[O-])c3)c(NS(=O)(=O)c3cccc([N+](=O)[O-])c3)c2)cc1 [Compound 12f]	IC50	> 167 µM
Cc1ccc(S(=O)(=O)Nc2ccc(Oc3ccc(F)cc3)cc2NS(=O)(=O)c2ccc(C)cc2)cc1 [Compound 12t]	IC50	105 µM
Cc1ccc(S(=O)(=O)Nc2ccc(OCc3ccc(Cl)cc3)cc2NS(=O)(=O)c2ccc(C)cc2)cc1 [Compound 15b]	IC50	> 180 µM
Cc1ccc(S(=O)(=O)Nc2ccc(Oc3ccc(CC(=O)O)cc3)cc2NS(=O)(=O)c2ccc(C)cc2)cc1 [Compound 12aa]	IC50	77 µM
Cc1ccc(S(=O)(=O)Nc2ccc(-c3ccc(Cl)cc3)cc2NS(=O)(=O)c2ccc(C)cc2)cc1 [Compound 21]	IC50	> 190 µM

### Prompt Determine from records and report IC50 for Cc1ccc(S(=O)(=O)Nc2ccc(-n3ccnc3)cc2NS(=O)(=O)c2ccc(C)cc2)cc1 [Compound 17d]
### Response > 207 µM

### Prompt Quickly give me recorded IC50 for COc1ccc(Oc2ccc(NS(=O)(=O)c3ccc(NC(C)=O)cc3)c(NS(=O)(=O)c3ccc(NC(C)=O)cc3)c2)cc1 [Compound 12j]
### Response > 160 µM

### Prompt Output measured IC50 for this item: COc1cccc(NS(=O)(=O)c2ccc(C)cc2)c1NS(=O)(=O)c1ccc(C)cc1 [Compound 22a]
### Response > 224 µM

###

- target-or-system: Recombinant human Src (Homo sapiens)
- Construct: made in house; host or cells: baculovirus-insect cell system
- assay-text: Src tyrosine kinase activity, poly E4Y / 32P-ATP phosphorylation assay
- Type: biochemical
- measurement-conditions: poly E4Y / 32P-ATP; Formula IV compounds
measured-quantity: IC50 (µM)

Worked cases, IC50 given:
molecule	endpoint-value
Cc1ccc(S(=O)(=O)Nc2ccc(NC(=O)c3ccccc3)cc2N(C(=O)c2ccccc2)S(=O)(=O)c2ccc(C)cc2)cc1 [Compound 71o]	39
COc1ccc(Oc2ccc(NS(=O)(=O)c3ccc(C)cc3)c(OCCCO)c2)cc1	212
COc1ccc(Oc2ccc(NS(=O)(=O)c3ccc(C)cc3)c(C(=O)O)c2)cc1	133
Cc1ccc(C(=O)Nc2cc(Sc3ccc(Cl)cc3)c([N+](=O)[O-])cc2NC(=O)c2ccc(C)cc2)cc1	153

P = COc1ccc(Oc2ccc(NS(=O)(=O)c3ccc(C)cc3)c(CNS(=O)(=O)c3ccc(C)cc3)c2)cc1 [Compound 71m]
Q = Cc1ccc(S(=O)(=O)Nc2ccc(Sc3ccc(Cl)cc3)c([N+](=O)[O-])c2)cc1
### Prompt // compare measured IC50, left P , right Q , return larger When you have decided, please share the label of that item.
### Response Q

###

- target-or-system: FGF receptor (FGFr)
- assay-text: FGFr tyrosine kinase activity, poly E4Y / 32P-ATP phosphorylation assay
- Format: biochemical
- measurement-conditions: Table 3, Formula II compounds; NI = no inhibition at 100 μg/mL
measured-quantity: IC50 (µM)

molecule	IC50 (µM)
Cc1ccc(S(=O)(=O)Nc2ccc(-c3ccc(Cl)cc3)cc2NS(=O)(=O)c2ccc(C)cc2)cc1	23
COc1ccc(Oc2ccc(NS(=O)(=O)c3ccc(Cl)cc3)c(NS(=O)(=O)c3ccc(Cl)cc3)c2)cc1 [Compound 12c]	19
Cc1ccc(S(=O)(=O)Nc2ccc(N3CCOCC3)cc2NS(=O)(=O)c2ccc(C)cc2)cc1 [Compound 17f]	50

a = Cc1ccc(S(=O)(=O)Nc2ccc(OCc3ccc(Cl)cc3)cc2NS(=O)(=O)c2ccc(C)cc2)cc1 [Compound 15b]
b = COc1ccc(Oc2ccc(NS(=O)(=O)c3cccc([N+](=O)[O-])c3)c(NS(=O)(=O)c3cccc([N+](=O)[O-])c3)c2)cc1 [Compound 12f]
### Prompt // max by IC50 over [ a , b ] Write down the label attached to your selection.
### Response a
(a: 88 µM, b: 35 µM)

I = COc1ccc(Oc2ccc(NS(=O)(=O)c3c(C)cc(C)cc3C)c(NS(=O)(=O)c3c(C)cc(C)cc3C)c2)cc1 [Compound 12q]
II = COc1ccc(Oc2ccc(NS(=O)(=O)c3ccc(NC(C)=O)cc3)c(NS(=O)(=O)c3ccc(NC(C)=O)cc3)c2)cc1 [Compound 12j]
### Prompt Field: lower IC50 | Options: I / II When you have decided, please share the label of that item.
### Response I
(I: 42 µM, II: 192 µM)

###

- target-or-system: Recombinant human Src (Homo sapiens)
- Construct: made in house; host or cells: baculovirus-insect cell system
- assay-text: Src tyrosine kinase activity, poly E4Y / 32P-ATP phosphorylation assay
- Type: biochemical
- measurement-conditions: Table 2; compound at 15 ug/mL; read-out: % Inhibition at 15 ug/mL Src (%)
measured-quantity: inhibition at 15 µg/mL (%)

In the examples that follow, each entry is paired with its recorded inhibition at 15 µg/mL.
smi	inhibition at 15 µg/mL, %
Cc1ccc(S(=O)(=O)Nc2cc(NCc3ccccn3)c([N+](=O)[O-])cc2NS(=O)(=O)c2ccc(C)cc2)cc1	15
Cc1ccc(S(=O)(=O)Nc2cc(NC3CCCCC3)c([N+](=O)[O-])cc2NS(=O)(=O)c2ccc(C)cc2)cc1	4
Cc1ccc(S(=O)(=O)Nc2cc(NCC3CCCCC3)c([N+](=O)[O-])cc2NS(=O)(=O)c2ccc(C)cc2)cc1	22
Cc1ccc(S(=O)(=O)Nc2cc(NCC3(O)CCCCC3)c([N+](=O)[O-])cc2NS(=O)(=O)c2ccc(C)cc2)cc1	18

a = Cc1ccc(S(=O)(=O)Nc2cc(N3CCN(C)CC3)c([N+](=O)[O-])cc2NS(=O)(=O)c2ccc(C)cc2)cc1
b = Cc1ccc(S(=O)(=O)Nc2cc(N3CCSCC3)c([N+](=O)[O-])cc2NS(=O)(=O)c2ccc(C)cc2)cc1
### Prompt Of a versus b , which is the one with smaller reported inhibition at 15 µg/mL? When you have decided, please share the label of that item.
### Response a
(a: 2%, b: 15%)

###

- target-or-system: Recombinant Csk (Homo sapiens, UniProt P41240)
- assay-text: Csk tyrosine kinase activity, poly E4Y / 32P-ATP phosphorylation assay
- Type: biochemical
- measurement-conditions: Table 2, Formula I compounds; NI = no inhibition at 100 μg/mL
measured-quantity: IC50 (µM)

Example compounds with recorded IC50:
smi	IC50 / µM
Cc1ccc(S(=O)(=O)Nc2cc(Sc3ccc(Cl)cc3)c([N+](=O)[O-])cc2NS(=O)(=O)c2ccc(C)cc2)cc1	23
Cc1ccc(S(=O)(=O)Nc2cc(SCc3ccco3)c([N+](=O)[O-])cc2NS(=O)(=O)c2ccc(C)cc2)cc1	11.3
Cc1ccc(Sc2cc(NS(=O)(=O)c3ccc(C)cc3)c(NS(=O)(=O)c3ccc(C)cc3)cc2[N+](=O)[O-])cc1	10.3
Cc1ccc(S(=O)(=O)Nc2cc(Sc3ccc(F)cc3)c([N+](=O)[O-])cc2NS(=O)(=O)c2ccc(C)cc2)cc1	8.6

I = Cc1ccc(S(=O)(=O)Nc2cc(Sc3c(C)cccc3C)c([N+](=O)[O-])cc2NS(=O)(=O)c2ccc(C)cc2)cc1
II = COc1ccccc1Sc1cc(NS(=O)(=O)c2ccc(C)cc2)c(NS(=O)(=O)c2ccc(C)cc2)cc1[N+](=O)[O-]
### Prompt Between the entries labeled I and II , whose measured IC50 is lower? // caller expects the label of the chosen entry
### Response I
(I: 5.4 µM, II: 15 µM)
